# target_desc: SPT (SPT2-expressing membrane fraction: human SPT1, human SPT2 and human ssSPTa) (Homo sapiens, UniProt O15269+O15270)
# Construct: Full-length human SPT1, human SPT2 and human ssSPTa used; made in house; host or cells: FreeStyle 293 cells (pcDNA3.1 vectors, cotransfection); crude membrane fraction used
# Sequence (O15269 1-473): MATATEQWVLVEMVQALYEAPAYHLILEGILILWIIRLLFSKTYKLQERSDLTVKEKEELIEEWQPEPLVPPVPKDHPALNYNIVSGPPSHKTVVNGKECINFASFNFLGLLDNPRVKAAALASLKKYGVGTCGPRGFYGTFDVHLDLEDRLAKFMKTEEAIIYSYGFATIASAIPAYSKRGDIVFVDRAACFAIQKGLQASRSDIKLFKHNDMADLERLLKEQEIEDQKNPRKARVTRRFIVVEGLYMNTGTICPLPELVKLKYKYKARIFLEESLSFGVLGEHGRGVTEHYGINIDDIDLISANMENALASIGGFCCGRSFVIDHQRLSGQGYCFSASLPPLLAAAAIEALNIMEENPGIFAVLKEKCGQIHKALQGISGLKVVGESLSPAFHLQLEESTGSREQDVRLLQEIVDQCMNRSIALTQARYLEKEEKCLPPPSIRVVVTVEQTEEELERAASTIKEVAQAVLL
# Sequence (O15270 1-562): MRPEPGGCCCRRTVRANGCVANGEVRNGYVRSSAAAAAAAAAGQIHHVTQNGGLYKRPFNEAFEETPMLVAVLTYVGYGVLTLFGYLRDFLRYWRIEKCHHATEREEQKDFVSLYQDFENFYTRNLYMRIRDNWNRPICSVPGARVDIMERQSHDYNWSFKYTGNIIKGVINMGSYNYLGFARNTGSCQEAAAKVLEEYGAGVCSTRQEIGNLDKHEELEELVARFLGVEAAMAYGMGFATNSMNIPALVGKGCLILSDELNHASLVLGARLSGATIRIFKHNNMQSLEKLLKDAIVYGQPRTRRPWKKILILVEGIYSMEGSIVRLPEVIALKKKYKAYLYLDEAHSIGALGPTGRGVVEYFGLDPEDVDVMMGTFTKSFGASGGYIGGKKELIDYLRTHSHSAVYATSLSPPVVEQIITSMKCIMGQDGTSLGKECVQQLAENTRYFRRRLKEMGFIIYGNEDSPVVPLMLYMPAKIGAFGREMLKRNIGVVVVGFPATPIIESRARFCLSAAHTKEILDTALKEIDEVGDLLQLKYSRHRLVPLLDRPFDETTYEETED
# Sequence (Q969W0 1-71 partner): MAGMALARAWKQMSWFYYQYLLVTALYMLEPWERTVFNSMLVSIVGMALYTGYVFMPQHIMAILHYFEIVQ
# test_method_notes: SPT enzyme inhibition test (Test Example 1)
# Format: biochemical
# experimental_parameters: read-out: Rate of inhibition (%) at 1 μM
Listed here are compounds together with their documented inhibition at 1 µM.
Dear colleague, please send the value followed by its unit.

Some solved cases for reference:
COc1ccc(C(=O)N2CCC(NC(=O)c3ncccc3C(F)(F)F)c3c2cnn3C)cc1OC (stereo not drawn) [Example 100A]: 97%
COc1cc(C(=O)N2CC[C@@H](NC(=O)c3c(C)nn(C)c3Cl)[C@@H](c3ccccc3)C2)cc2nccnc12 [Example 345B]: 102%

Q: Requested field: inhibition at 1 µM. Item: COc1ccc(C(=O)N2CCC(NC(=O)c3ccccc3Cl)c3c2cnn3CCC(C)(C)O)cc1OC (stereo not drawn) [Example 186A]
Result: 101%

Q: Also CCn1ncc2c1[C@@H](NC(=O)c1ccccc1OC(F)(F)F)CCN2C(=O)c1cnc(OC)c(OC)c1 [Example 178A] ?
Result: 101%

Q: Now this one: COc1ccc(C(=O)N2CCC(NC(=O)c3ccccc3Cl)c3cn(C)nc32)cc1OC (stereo not drawn)
Result: 98%

Q: Same thing, different compound: O=C(N[C@@H]1CCN(C(=O)c2cc(Cl)c3nccnc3c2)C[C@@H]1c1ccccc1)c1ncccc1OC(F)F [Example 31B]
Result: 102%

Q: Can you check O=C(N[C@@H]1CCN(C(=O)c2cc(Cl)c3nccnc3c2)C[C@@H]1c1ccc(F)cc1)c1ncccc1C(F)(F)F [Example 245B] next?
Result: 100%

Q: Field entry: COc1cc(C(=O)N2CC[C@@H](NC(=O)c3ncccc3C(F)(F)F)[C@@H](c3ccccc3)C2)n(C)n1 [Example 72B]
Result: 94%

Q: Record: Cc1cc(C(=O)N2CC[C@@H](NC(=O)c3ncccc3C(F)(F)F)[C@@H](c3ccccc3)C2)cn2c(C)cnc12 [Example 279B]
Result: 103%

Q: And what about the compound COc1ncc(C(=O)N2CCC(NC(=O)c3ccccc3Cl)c3c2cnn3C)cc1Cl (stereo not drawn) [Example 84A] ?
Result: 98%

Q: Do the same for COc1ccc(C(=O)N2CCC(NC(=O)c3ccccc3Cl)c3nn(C)cc32)cc1OC (stereo not drawn) please
Result: 91%

Q: Could you do the same for COc1cc(C(=O)N2CC[C@@H](NC(=O)c3ccccc3OC(F)F)[C@H](c3ccc(F)cc3)C2)cnc1OC [Example 361B] , please?
Result: 102%

Q: Now the same for COc1ccc(C(=O)N2CCC(NC(=O)c3ccccc3Cl)c3c(C)nsc32)cc1OC (stereo not drawn) [Example 117A]
Result: 84%

Q: Please answer likewise for COc1ncc(C(=O)N2CCC(NC(=O)c3ccc(Cl)cc3C(F)(F)F)c3c2cnn3CC(F)F)cc1Cl (stereo not drawn) [Example 126A]
Result: 101%

Q: Entry O=C(N[C@@H]1CCN(C(=O)c2cc(Cl)c3nccnc3c2)C[C@@H]1c1ccccc1)c1ncccc1C(F)(F)F [Example 241B] please
Result: 101%

* * *

Reported inhibition at 1 µM by item:
# target_desc: SPT (SPT2-expressing membrane fraction: human SPT1, human SPT2 and human ssSPTa) (Homo sapiens, UniProt O15269+O15270)
# Construct: Full-length human SPT1, human SPT2 and human ssSPTa used; made in house; host or cells: FreeStyle 293 cells (pcDNA3.1 vectors, cotransfection); crude membrane fraction used
# Sequence (O15269 1-473): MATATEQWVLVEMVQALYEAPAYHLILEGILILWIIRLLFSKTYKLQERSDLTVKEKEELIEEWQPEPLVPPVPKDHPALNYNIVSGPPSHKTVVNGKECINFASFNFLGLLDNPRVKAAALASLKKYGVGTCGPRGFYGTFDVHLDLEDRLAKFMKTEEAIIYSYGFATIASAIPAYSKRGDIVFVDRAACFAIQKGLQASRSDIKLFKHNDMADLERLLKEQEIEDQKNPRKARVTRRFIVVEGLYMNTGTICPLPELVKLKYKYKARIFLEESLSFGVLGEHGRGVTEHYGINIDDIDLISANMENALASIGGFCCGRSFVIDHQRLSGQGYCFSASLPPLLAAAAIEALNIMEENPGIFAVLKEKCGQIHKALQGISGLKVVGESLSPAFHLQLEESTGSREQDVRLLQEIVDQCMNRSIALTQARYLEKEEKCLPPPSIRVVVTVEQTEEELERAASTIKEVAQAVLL
# Sequence (O15270 1-562): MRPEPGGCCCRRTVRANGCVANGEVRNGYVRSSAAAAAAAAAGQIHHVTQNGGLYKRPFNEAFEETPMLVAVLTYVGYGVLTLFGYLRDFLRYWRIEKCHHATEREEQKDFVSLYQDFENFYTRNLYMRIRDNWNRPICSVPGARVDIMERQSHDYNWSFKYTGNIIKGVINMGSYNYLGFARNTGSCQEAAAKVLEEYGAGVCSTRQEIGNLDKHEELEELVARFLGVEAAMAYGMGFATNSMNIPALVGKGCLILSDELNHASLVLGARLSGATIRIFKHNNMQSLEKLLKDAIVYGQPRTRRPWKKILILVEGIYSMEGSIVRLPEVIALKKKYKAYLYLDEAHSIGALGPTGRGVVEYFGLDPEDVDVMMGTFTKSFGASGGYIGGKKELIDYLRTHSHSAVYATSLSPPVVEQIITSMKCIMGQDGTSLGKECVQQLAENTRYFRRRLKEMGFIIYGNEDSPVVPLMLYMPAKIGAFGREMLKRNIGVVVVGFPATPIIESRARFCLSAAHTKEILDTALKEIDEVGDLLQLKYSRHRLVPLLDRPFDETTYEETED
# Sequence (Q969W0 1-71 partner): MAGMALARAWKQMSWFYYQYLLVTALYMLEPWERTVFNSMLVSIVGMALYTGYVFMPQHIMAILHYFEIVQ
# test_method_notes: SPT enzyme inhibition test (Test Example 1)
# Type: biochemical
# experimental_parameters: read-out: Rate of inhibition (%) at 1 μM
Enter your answer as a number in %; do not include the unit.

Known results for compounds:
CCn1ncc2c1[C@@H](NC(=O)c1ccc(Cl)cc1C(F)(F)F)CCN2C(=O)c1cnc(OC)c(OC)c1 [Example 165A]: 101
COc1ccc(C(=O)N2CC[C@@H](NC(=O)c3ccccc3OC(F)(F)F)[C@@H](N3CCCCC3)C2)cc1OC (relative stereo) [Example 55B]: 95
O=C(N[C@@H]1CCN(C(=O)c2ccc3nccnc3c2)C[C@@H]1c1ccccc1)c1ccccc1OC(F)(F)F [Example 57B]: 96
COc1cc(C(=O)N2CC[C@@H](NC(=O)c3c(C)c(C)nn3C)[C@@H](c3ccccc3)C2)cc2nccnc12 [Example 324B]: 99
COc1cc(C(=O)N2CC[C@@H](NC(=O)c3cn(C)nc3C)[C@@H](c3ccccc3)C2)cnc1OC [Example 152B]: 96

Q: Quick one: inhibition at 1 µM for CN(C)CCOc1cc(C(F)(F)F)c(C(=O)N[C@@H]2CCN(C(=O)c3cc(Cl)c4nccnc4c3)C[C@@H]2c2ccccc2)cn1 [Example 38B] ?
Result: 101

Q: Can you check COc1ccc(C(=O)N2CCC(NC(=O)c3ccccc3Cl)c3ccc(Cl)nc32)cc1OC (stereo not shown) [Example 217A] next?
Result: 102

Q: Now consider Cn1cnc2ccc(C(=O)N3CC[C@@H](NC(=O)c4ccccc4OC(F)(F)F)[C@@H](c4ccccc4)C3)cc21 [Example 104B] and answer again.
Result: 101

Q: Can you check COc1cc(C(=O)N2CC[C@@H](NC(=O)c3ccnn3C)[C@@H](c3ccccc3)C2)cnc1OC [Example 144B] next?
Result: 98

Q: Ok, now COc1ccc(C(=O)N2CCC(NC(=O)c3cccnc3C(F)(F)F)c3c2cnn3C)cc1OC (stereo not shown) [Example 103A]
Result: 95

Q: Request: Cc1nn(C)c(Cl)c1C(=O)N[C@@H]1CCN(C(=O)c2cc(Cl)c3nccnc3c2)C[C@@H]1c1ccc(F)cc1 [Example 59B]
Result: 101

Q: Same question for Cc1cc(C(=O)N[C@@H]2CCN(C(=O)c3cc(Cl)c4nccnc4c3)C[C@@H]2c2ccccc2)n(C)n1 [Example 23B] please.
Result: 101
